- Tested on: LOX IMVI
- ASSAY_SUMMARY: Cytotoxicity against human LOXIMVI cells after 96 hrs by Alamar blue method
- Assay type: functional, cell-based
pIC50: −log10 of the molar value.
REPORTED_PROPERTY: pIC50

structure_string=CCN(CC)c1ccc2cc(C(=O)NCCCCCCCCOc3cc4c(cc3OC)C(=O)N3CCC[C@H]3C=N4)c(=O)oc2c1 value_comparator== val=5.35
structure_string=CCN(CC)c1ccc2cc(C(=O)NCCCCNC(=O)CCOc3cc4c(cc3OC)C(=O)N3CCC[C@H]3C=N4)c(=O)oc2c1 value_comparator=< val=5.00
structure_string=CCOC(=O)c1cc2ccc(N(CC)CC)cc2oc1=O value_comparator=< val=5.00
structure_string=CCN(CC)c1ccc2cc(C(=O)NCCCOc3cc4c(cc3OC)C(=O)N3CCC[C@H]3C=N4)c(=O)oc2c1 value_comparator== val=5.85

###

- Test system: DNA
- ASSAY_SUMMARY: Binding affinity to calf thymus DNA assessed as thermal denaturation temperature at 20 uM after 18 hrs
- Format: nucleic-acid assay
- ASSAY_CONDITIONS: Bos taurus
Sorting guide: entries reporting ΔTm beneath 0.9 °C go in the 1 (yes) pile, the rest go in the 0 (no) pile.

structure_string=CCN(CC)c1ccc2cc(C(=O)NCCCOc3cc4c(cc3OC)C(=O)N3CCC[C@H]3C=N4)c(=O)oc2c1 tgt=DNA label_class="0 (no)"
structure_string=CCN(CC)c1ccc2cc(C(=O)NCCCCCCCCOc3cc4c(cc3OC)C(=O)N3CCC[C@H]3C=N4)c(=O)oc2c1 tgt=DNA label_class="0 (no)"
structure_string=CCOC(=O)c1cc2ccc(N(CC)CC)cc2oc1=O tgt=DNA label_class="1 (yes)"
structure_string=COc1cc2c(cc1O)N=C[C@@H]1CCCN1C2=O tgt=DNA label_class="1 (yes)"

###

- Tested on: DNA
- ASSAY_SUMMARY: Binding affinity to calf thymus DNA assessed as thermal denaturation temperature at 20 uM after 72 hrs
- Assay type: nucleic-acid assay
- ASSAY_CONDITIONS: Bos taurus
Mark each entry Yes if its ΔTm sits below 3 °C, and No for all others.

structure_string=CCN(CC)c1ccc2cc(C(=O)NCCCCNC(=O)CCOc3cc4c(cc3OC)C(=O)N3CCC[C@H]3C=N4)c(=O)oc2c1 label_class=Yes
structure_string=CCOC(=O)c1cc2ccc(N(CC)CC)cc2oc1=O label_class=Yes
structure_string=CCN(CC)c1ccc2cc(C(=O)NCCCCCCCCOc3cc4c(cc3OC)C(=O)N3CCC[C@H]3C=N4)c(=O)oc2c1 label_class=Yes
structure_string=COc1cc2c(cc1O)N=C[C@@H]1CCCN1C2=O label_class=Yes
structure_string=CCN(CC)c1ccc2cc(C(=O)NCCCOc3cc4c(cc3OC)C(=O)N3CCC[C@H]3C=N4)c(=O)oc2c1 label_class=No

###

- Tested on: OVCAR-5
- ASSAY_SUMMARY: Cytotoxicity against human OVCAR5 cells after 96 hrs by Alamar blue method
- Format: functional, cell-based
- ASSAY_CONDITIONS: OVCAR-5, 96 h
REPORTED_PROPERTY: IC50 (µM)

structure_string=CCOC(=O)c1cc2ccc(N(CC)CC)cc2oc1=O tgt=OVCAR-5 reported_property=IC50 value_comparator=> val=10
structure_string=CCN(CC)c1ccc2cc(C(=O)NCCCCNC(=O)CCOc3cc4c(cc3OC)C(=O)N3CCC[C@H]3C=N4)c(=O)oc2c1 tgt=OVCAR-5 reported_property=IC50 value_comparator=> val=10
structure_string=CCN(CC)c1ccc2cc(C(=O)NCCCOc3cc4c(cc3OC)C(=O)N3CCC[C@H]3C=N4)c(=O)oc2c1 tgt=OVCAR-5 reported_property=IC50 value_comparator== val=3.2
structure_string=CCN(CC)c1ccc2cc(C(=O)NCCCCCCCCOc3cc4c(cc3OC)C(=O)N3CCC[C@H]3C=N4)c(=O)oc2c1 tgt=OVCAR-5 reported_property=IC50 value_comparator== val=7.8
